- assay.info: Selectivity index, ratio of IC50 for human Hs888Lu cells to EC50 for human CA46 cells measured after 24 hrs by CellTiter-Glo luminescent assay
- Format: toxicity
- condition.parameters: Hs888Lu cells (IC50) versus CA46 cells (EC50)
measured.endpoint: selectivity ratio at 24 h
Numbers only.

Query :: I am curious: what selectivity ratio at 24 h value has been reported for C=C1C[C@]23C[C@@]1(O)CC[C@H]2[C@@]12C=CC(=O)[C@@](C)(C(=O)O1)[C@H]2[C@@H]3C(=O)OC ?
Result :: 500

* * *

- assay.info: Selectivity index, ratio of IC50 for human Hs888Lu cells to EC50 for human RC-K8 cells measured after 24 hrs by CellTiter-Glo luminescent assay
- Type: toxicity
- condition.parameters: Hs888Lu cells (IC50) versus RC-K8 cells (EC50)
measured.endpoint: selectivity ratio at 24 h
Answers are plain numbers.

Query :: Which selectivity ratio at 24 h reading was recorded for the compound C=C1C[C@]23C[C@@]1(O)CC[C@H]2[C@@]12C=CC(=O)[C@@](C)(C(=O)O1)[C@H]2[C@@H]3C(=O)OC ?
Result :: 500

* * *

- assay.info: Selectivity index, ratio of IC50 for human Hs895SK cells to EC50 for human HS578T cells measured after 24 hrs by CellTiter-Glo luminescent assay
- Type: toxicity
- condition.parameters: Hs895SK cells (IC50) versus HS578T cells (EC50)
measured.endpoint: selectivity ratio at 24 h

Query :: Sample C=C1C[C@]23C[C@@]1(O)CC[C@H]2[C@@]12C=CC(=O)[C@@](C)(C(=O)O1)[C@H]2[C@@H]3C(=O)OC — what was its selectivity ratio at 24 h?
Result :: > 500

* * *

- assay.info: Selectivity index, ratio of IC50 for human Hs888Lu cells to EC50 for human SU-DHL-4 cells measured after 24 hrs by CellTiter-Glo luminescent assay
- Type: toxicity
- condition.parameters: Hs888Lu cells (IC50) versus SU-DHL-4 cells (EC50)
measured.endpoint: selectivity ratio at 24 h
Numbers only.

Query :: Which measured selectivity ratio at 24 h value corresponds to C=C1C[C@]23C[C@@]1(O)CC[C@H]2[C@@]12C=CC(=O)[C@@](C)(C(=O)O1)[C@H]2[C@@H]3C(=O)OC ?
Result :: 500

* * *

- Tested on: SUD4
- assay.info: Cytotoxicity against human SU-DHL-4 cells assessed as reduction in cell viability measured after 24 hrs by CellTiter-Glo luminescent assay
- Assay type: functional, cell-based
- condition.parameters: SU-DHL-4, 24 h
I'd appreciate it if you could supply EC50 values for the items below.

Known results for compounds:
{"structure": "C=C1C(=O)[C@]23C[C@@]1(O)CC[C@H]2[C@@]12C=CC(=O)[C@@](C)(C(=O)O1)[C@H]2[C@@H]3C(=O)OC", "EC50": "< 40 nM"}
{"structure": "C=C1C[C@]23C[C@@]1(O)CC[C@H]2[C@@]12C=CC(=O)[C@@](C)(C(=O)O1)[C@H]2[C@@H]3C(=O)OC", "EC50": "< 40 nM"}
{"structure": "C=C1C(=O)[C@@]2(C)CC[C@@H]3c4cccc(C)c4[C@H](C(=O)OC)[C@@]13C2", "EC50": "690 nM"}
{"structure": "C=C1[C@@H]2OC(=O)[C@H]3[C@@H]4[C@@]5(C)C(=O)C=C[C@@]4(OC5=O)[C@@H]4CC[C@]1(O)C[C@]234", "EC50": "3000 nM"}

Kindly consider the entry below.
Query :: Bench note: what EC50 did C=C1C(=O)[C@@]2(C)CC[C@H]3c4cccc(C)c4[C@H](C(=O)OC)[C@@]13C2 show?
Result :: 620 nM
